# subject_of_test: hGIP-R (Homo sapiens, UniProt P48546)
# Construct: expressed in transfected cells; host or cells: HEK-293 clonal cell lines
# Sequence (P48546 22-466): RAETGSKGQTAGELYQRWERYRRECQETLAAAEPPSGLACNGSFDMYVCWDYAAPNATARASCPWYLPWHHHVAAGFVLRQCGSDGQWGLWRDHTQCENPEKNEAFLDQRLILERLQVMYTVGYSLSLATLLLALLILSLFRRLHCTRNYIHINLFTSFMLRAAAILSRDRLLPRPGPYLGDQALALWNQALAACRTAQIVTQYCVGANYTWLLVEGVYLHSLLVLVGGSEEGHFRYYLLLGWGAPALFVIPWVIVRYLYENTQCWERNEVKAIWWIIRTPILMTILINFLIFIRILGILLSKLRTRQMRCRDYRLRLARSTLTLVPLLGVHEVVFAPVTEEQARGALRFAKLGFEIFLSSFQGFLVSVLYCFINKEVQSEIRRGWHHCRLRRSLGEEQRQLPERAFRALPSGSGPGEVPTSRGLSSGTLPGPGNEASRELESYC
# assay_remarks: Functional hGIP-R Assay (cAMP formation, HTRF)
# Assay type: cell-based
# condition_info: cAMP potency; HEK-293 cells expressing hGIP-R; incubated at 37° C. in the presence of 0.1% bovine casein; geometric mean; read-out: Human GIP-R EC50, nM (SEM, n)
Measured EC50 accompanies every entry in the list below.

Cn1cc2cc(-c3ccc([C@H]4C[C@@]45CCN([C@H](Cc4cnn(C(F)F)c4)C(=O)NC(C)(C)Cn4nc(C(F)(F)F)cc4-c4ccc(P(C)(C)=O)cc4)C5=O)c(Cl)c3)cnc2n1 :: 0.179 nM
CN(C(=O)[C@H]1C[C@@H]1c1ccc(-c2cnc3nn(C)cc3c2)cc1)[C@H](Cc1cnn(C)c1)C(=O)NC(C)(C)Cn1nc(C(F)(F)F)cc1-c1n[nH]c(=O)s1 :: 198 nM
COCc1cn2cc(-c3ccc([C@H]4C[C@@H]4C(=O)N(C)[C@H](Cc4cnn(C)c4)C(=O)NC(C)(C)Cn4nc(C(F)(F)F)cc4-c4ccc(=O)n(C)c4)cc3)cnc2n1 :: 45.5 nM
CC(C)(Cc1ccc(F)cn1)NC(=O)[C@@H](Cc1cnc2ncccn12)NC(=O)[C@H]1C[C@@H]1c1ccc(-c2cnc3nc(C(F)(F)F)cn3c2)cc1 :: 41 nM
Cn1cc(-c2cc(C(F)(F)F)nn2CC(C)(C)NC(=O)[C@@H](Cc2cnn(C(F)F)c2)NC(=O)[C@H]2C[C@@H]2c2nc3cnn(C)c3cc2F)cc(F)c1=O :: 108 nM

Asked: What EC50 value was documented for this compound, Cn1cc(C[C@@H](NC(=O)[C@H]2C[C@@H]2c2ccc(-c3cnc4nn(C)cc4c3)cc2)C(=O)NC(C)(C)Cn2nc(C(F)(F)F)cc2-c2cnn3c2CN(C(=O)OC(C)(C)C)CC3)cn1 ?
Given back: 84.6 nM

Asked: What EC50 value was documented for this compound, Cn1cc(C[C@@H](NC(=O)[C@H]2C[C@@H]2c2ccc(-c3cnc4nn(C)cc4c3)cc2)C(=O)NC(C)(C)Cn2nc(C(F)(F)F)cc2-c2ccc(=O)[nH]c2)cn1 ?
Given back: 49.1 nM

Asked: What EC50 value was documented for this compound, [2H]C([2H])([2H])n1cc(-c2cc(C(F)(F)F)nn2CC(C)(C)NC(=O)[C@@H](Cc2cnn(C(F)F)c2)N2CC[C@@]3(C[C@@H]3c3ccc(-c4cnc5nn(C)cc5c4)cc3)C2=O)cc(F)c1=O ?
Given back: 26.2 nM

Asked: What EC50 value was documented for this compound, Cn1cc2cc(-c3ccc([C@H]4C[C@@]45CCN([C@H](Cc4cnn(C(F)F)c4)C(=O)NC4(Cn6nc(C(F)(F)F)cc6-c6cc(F)c(=O)n(C)c6)CC4)C5=O)c(F)c3)cnc2n1 (single isomer, unassigned; isomer 1) ?
Given back: 144 nM

###

# subject_of_test: hGIP-R (Homo sapiens)
# Construct: expressed in transfected cells; host or cells: HEK-293 clonal cell lines
# assay_remarks: Functional hGIP-R Assay (cAMP formation, HTRF)
# Format: cell-based
# condition_info: cAMP efficacy; percent of maximal response to GIP(1-42)OH; 37° C., 0.1% bovine casein; arithmetic mean ± SEM
Please respond with class 1 when measured Emax is strictly beneath 80%, and with class 0 in all other cases.

Cc1nc(-c2cnc3nc(C4CC4)cn3c2)ccc1[C@H]1C[C@@]12CCN([C@H](Cc1cnn(C(F)F)c1)C(=O)NC(C)(C)Cn1nc(C(F)(F)F)cc1-c1ccc(C(C)(C)OP(=O)(O)O)nc1)C2=O :: class 0
CC(C)(Cc1ccc(F)cc1)NC(=O)[C@@H](Cc1cnc2ncccn12)NC(=O)[C@H]1C[C@@H]1c1ccc(NC(=O)C2CCC(F)(F)CC2)cc1 :: class 1
COCn1ncc(-c2cc(C(F)(F)F)nn2CC(C)(C)NC(=O)[C@@H](Cc2cnn(C)c2)NC(=O)[C@H]2C[C@@H]2c2ccc(-c3cnc4nn(C)cc4c3)cc2)n1 :: class 0
Cn1cc2cc(-c3ccc([C@H]4C[C@@]45CCN([C@H](Cc4cnn(C(F)F)c4)C(=O)NC(C)(C)Cn4nc(C(F)(F)F)cc4-c4cc(F)c(CO)cc4F)C5=O)cc3)cnc2n1 :: class 1
Cn1cc2cc(-c3ccc([C@H]4C[C@@]45CCN([C@H](Cc4cnn(C(F)F)c4)C(=O)NC(C)(C)Cn4nc(C(F)(F)F)cc4-c4ccc(C#N)nc4)C5=O)cc3)cnc2n1 :: class 1

Asked: Please state whether Emax is below 80% for Cc1nc(-c2cnc3nn(C4CC4)cc3c2)ccc1[C@H]1C[C@@]12CCN([C@H](Cc1cnn(C(F)F)c1)C(=O)NC(C)(C)Cn1nc(C(F)(F)F)cc1-c1ccn(C3CC3)c(=O)c1)C2=O
Given back: class 1

Asked: Please state whether Emax is below 80% for [2H]C([2H])([2H])N(C(=O)[C@H]1C[C@@H]1c1cnc(-c2cnc3nn(C)cc3c2)nc1C(F)(F)F)[C@H](Cc1cnn(C(F)F)c1)C(=O)NC(C)(C)Cn1nc(C(F)(F)F)cc1-c1cc(F)c(=O)n(C)c1
Given back: class 0

Asked: Please state whether Emax is below 80% for Cn1cc2cc(-c3ccc([C@H]4C[C@@]45CCN([C@H](Cc4cnn(C(F)F)c4)C(=O)NC(C)(C)Cn4nc(C(F)(F)F)cc4-c4cccn(CC(N)=O)c4=O)C5=O)cc3)cnc2n1
Given back: class 0

Asked: Please state whether Emax is below 80% for Cn1cc(C[C@@H](NC(=O)[C@H]2C[C@@H]2c2ccc(-c3cnc4nn(C)cc4c3)cc2)C(=O)NC(C)(C)Cn2nc(C(F)(F)F)cc2-c2cnn(C3COC3)c2)cn1
Given back: class 0
